target: HLA-A*26:01; assay: IEDB peptide-MHC binding, purified MHC/competitive/radioactivity; filed as Kd, often an IC50 or EC50 that approximates it; bounds were set here for any values at or beyond the usual limits of such assays; details: source organism: Mammarenavirus machupoense
experimental.readout: Kd

> print(dat)
   polymer.sequence  experimental.result
1         LSSSEPHCA            ≥ 77.9 µM

---

molecular target: HLA-B*48:01; experiment: IEDB peptide-MHC binding, purified MHC/direct/fluorescence; filed as Kd, often an IC50 or EC50 that approximates it; bounds were set here for any values at or beyond the usual limits of such assays; conditions: source organism: Marburg virus - Musoke, Kenya, 1980
pKd: −log10 of the molar value.
experimental.readout: pKd

> print(dat)
   polymer.sequence  experimental.result
1         GEGSGARLL               ≤ 4.70

---

molecular target: HLA-B*39:01; assay: IEDB peptide-MHC binding, purified MHC/direct/fluorescence; filed as Kd, often an IC50 or EC50 that approximates it; bounds were set here for any values at or beyond the usual limits of such assays; conditions: source organism: Camelpox virus M-96
experimental.readout: Kd

> print(dat)
   polymer.sequence  experimental.readout  experimental.result
1         IHIPGDTLF                    Kd              ≥ 20 µM

---

target: HLA-B*15:02; assay: IEDB peptide-MHC binding, purified MHC/direct/fluorescence; filed as Kd, often an IC50 or EC50 that approximates it; bounds were set here for any values at or beyond the usual limits of such assays; settings: source organism: Bacillus cereus 03BB108
pKd: −log10 of the molar value.
experimental.readout: pKd

> print(dat)
   polymer.sequence  measurement.target  experimental.result
1         KVQEWYLSY         HLA-B*15:02                 5.83

---

molecular target: HLA-A*33:01; experiment: IEDB peptide-MHC binding, purified MHC/competitive/radioactivity; filed as Kd, often an IC50 or EC50 that approximates it; bounds were set here for any values at or beyond the usual limits of such assays; conditions: source organism: Mammarenavirus guanaritoense
experimental.readout: Kd (µM)

> print(dat)
   polymer.sequence  measure.unit  experimental.result
1        KCSDHYLCLR            µM                 5.78

---

molecular target: HLA-A*24:03; assay: IEDB peptide-MHC binding, purified MHC/direct/fluorescence; filed as Kd, often an IC50 or EC50 that approximates it; bounds were set here for any values at or beyond the usual limits of such assays; conditions: source organism: Vibrio parahaemolyticus
pKd: −log10 of the molar value.
experimental.readout: pKd

> print(dat)
   polymer.sequence  experimental.result
1         QYDDLHKKF                 7.20

---

target: HLA-B*37:01; assay: IEDB peptide-MHC binding, purified MHC/competitive/fluorescence; bounds were set here for any values at or beyond the usual limits of such assays; conditions: source organism: Monodelphis domestica
experimental.readout: IC50

> print(dat)
   polymer.sequence  measurement.target  experimental.readout  experimental.result
1       YSLEYFQFVKK         HLA-B*37:01                  IC50              ≥ 20 µM

---

target: HLA-B*40:01; test: IEDB peptide-MHC binding, purified MHC/competitive/radioactivity; filed as Kd, often an IC50 or EC50 that approximates it; bounds were set here for any values at or beyond the usual limits of such assays; details: source organism: Murray valley encephalitis virus (strain MVE-1-51)
experimental.readout: Kd (nM)

> print(dat)
   polymer.sequence  experimental.readout  experimental.result
1        LEFEALGFLN                    Kd                  144
